# target-or-test-system: UniProt:P23739
# Sequence (P23739 1-1013 limits assumed): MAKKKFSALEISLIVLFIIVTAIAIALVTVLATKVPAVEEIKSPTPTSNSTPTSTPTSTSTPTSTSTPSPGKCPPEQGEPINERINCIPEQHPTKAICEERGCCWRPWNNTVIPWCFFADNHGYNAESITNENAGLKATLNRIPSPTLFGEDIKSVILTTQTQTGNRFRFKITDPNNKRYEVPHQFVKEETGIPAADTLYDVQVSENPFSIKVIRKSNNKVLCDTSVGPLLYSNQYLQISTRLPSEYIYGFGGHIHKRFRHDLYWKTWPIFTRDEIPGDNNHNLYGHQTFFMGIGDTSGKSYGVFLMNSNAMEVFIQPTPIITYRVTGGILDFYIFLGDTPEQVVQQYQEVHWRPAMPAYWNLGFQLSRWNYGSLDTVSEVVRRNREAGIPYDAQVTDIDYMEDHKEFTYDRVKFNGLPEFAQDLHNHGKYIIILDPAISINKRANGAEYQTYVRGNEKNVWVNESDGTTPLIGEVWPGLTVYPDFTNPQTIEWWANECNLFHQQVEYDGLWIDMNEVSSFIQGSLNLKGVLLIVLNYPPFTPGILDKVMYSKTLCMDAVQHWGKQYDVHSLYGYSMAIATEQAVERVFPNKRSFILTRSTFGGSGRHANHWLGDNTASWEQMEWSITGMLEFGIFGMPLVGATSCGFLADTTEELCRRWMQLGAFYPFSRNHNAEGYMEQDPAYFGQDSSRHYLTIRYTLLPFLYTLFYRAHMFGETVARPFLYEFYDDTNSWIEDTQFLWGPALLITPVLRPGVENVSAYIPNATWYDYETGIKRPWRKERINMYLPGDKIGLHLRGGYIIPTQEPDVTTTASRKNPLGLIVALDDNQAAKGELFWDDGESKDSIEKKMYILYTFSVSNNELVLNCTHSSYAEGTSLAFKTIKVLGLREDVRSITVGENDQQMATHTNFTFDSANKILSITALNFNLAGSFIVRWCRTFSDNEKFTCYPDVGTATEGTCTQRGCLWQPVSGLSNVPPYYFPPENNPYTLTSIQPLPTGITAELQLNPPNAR
# Sequence (P23739 1014-1841 limits assumed): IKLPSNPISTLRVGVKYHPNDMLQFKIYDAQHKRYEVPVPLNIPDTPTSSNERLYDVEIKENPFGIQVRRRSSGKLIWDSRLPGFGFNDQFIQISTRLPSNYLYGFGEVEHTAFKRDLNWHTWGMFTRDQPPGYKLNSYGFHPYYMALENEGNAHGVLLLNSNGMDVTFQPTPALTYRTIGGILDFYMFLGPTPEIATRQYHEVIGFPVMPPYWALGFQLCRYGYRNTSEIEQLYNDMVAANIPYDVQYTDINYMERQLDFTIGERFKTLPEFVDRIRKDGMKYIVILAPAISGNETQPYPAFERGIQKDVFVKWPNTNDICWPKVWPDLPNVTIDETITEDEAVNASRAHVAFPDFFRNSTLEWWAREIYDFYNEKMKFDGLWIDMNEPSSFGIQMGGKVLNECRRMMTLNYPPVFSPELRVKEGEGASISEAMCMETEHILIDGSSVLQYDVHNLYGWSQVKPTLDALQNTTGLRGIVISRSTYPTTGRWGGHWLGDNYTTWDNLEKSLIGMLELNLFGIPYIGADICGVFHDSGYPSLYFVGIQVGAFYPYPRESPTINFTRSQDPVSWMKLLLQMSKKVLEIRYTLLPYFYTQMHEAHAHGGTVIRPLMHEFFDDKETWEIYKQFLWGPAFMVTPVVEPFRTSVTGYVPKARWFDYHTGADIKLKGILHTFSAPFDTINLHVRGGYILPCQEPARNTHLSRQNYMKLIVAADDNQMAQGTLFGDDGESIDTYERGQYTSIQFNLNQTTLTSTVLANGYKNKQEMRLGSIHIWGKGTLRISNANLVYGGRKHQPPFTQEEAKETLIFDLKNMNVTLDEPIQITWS
# measurement-notes: Inhibition of Wistar rat intestinal sucrase assessed as inhibition of D-glucose release after 30 mins by spectrophotometry
property-measured: pIC50
Give bare numbers, as −log10 of the molar value.

Completed entries (count: 4):
sample-smiles	result-number
OC[C@@H]1N[C@@H](CCCCc2ccc(F)cc2)[C@H](O)[C@H]1O	6.77
Cc1ccc(CCCC[C@@H]2N[C@@H](CO)[C@H](O)[C@H]2O)cc1	7.35
OC[C@@H]1N[C@@H](CCCCc2cc(F)cc(F)c2)[C@H](O)[C@H]1O	7.59
OC[C@@H]1N[C@@H](CCCCc2ccc(O)cc2)[C@H](O)[C@H]1O	6.96

Proceed to the following item.
Tell me its pIC50 given COc1ccc(CCCC[C@@H]2N[C@@H](CO)[C@H](O)[C@H]2O)cc1 as the entry.
6.89

* * *

# measurement-notes: Inhibition of Wistar rat intestinal maltase assessed as inhibition of D-glucose release after 30 mins by spectrophotometry
property-measured: IC50
Kindly report the value followed by its unit.

Tell me its IC50 given OC[C@@H]1N[C@@H](CCCCc2ccccc2)[C@H](O)[C@H]1O as the entry.
220 nM
